method: Plasma pharmacokinetic assay in rats
Type: in vivo, Lewis rats
conditions_used: rat, plasma, po; male Lewis rats, 10 mg/kg intragastric; read-out: Intragastric administration Plasma exposure (AUC)
quantity_measured: AUC (µM·h)
Answers are plain numbers, in µM·h.

Which AUC reading was recorded for the compound `O=C(Nc1ccc(Cl)c(S(=O)(=O)[C@H]2CCCNC2)c1O)N[C@@H]1CCCc2cc(C(F)(F)F)oc21` ?
31.3

----------
method: Plasma pharmacokinetic assay in rats
Assay type: in vivo, Lewis rats
conditions_used: rat, plasma, po; male Lewis rats, 10 mg/kg intragastric; read-out: Intragastric administration Maximum plasma concentration (Cmax)
quantity_measured: Cmax (µM)
One number for each entry, in µM.

Which Cmax reading was recorded for the compound `O=C(Nc1ccc(Cl)c(S(=O)(=O)[C@H]2CCCNC2)c1O)N[C@@H]1CCCc2cc(C(F)(F)F)oc21` ?
3

----------
method: Plasma pharmacokinetic assay in rats
Type: in vivo, Lewis rats
conditions_used: rat, plasma; male Lewis rats, 2 mg/kg intravenous; read-out: Intravenous injection Clearance (CL)
quantity_measured: clearance (mL/min/kg)
Give bare numbers, in mL/min/kg.

Which clearance reading was recorded for the molecule `O=C(Nc1ccc(Cl)c(S(=O)(=O)[C@H]2CCCNC2)c1O)N[C@@H]1CCCc2cc(C(F)(F)F)oc21` ?
5.07
